Hi there, I'd appreciate the recorded inhibition for every entry that follows.
- experiment: human hepatoma cell viability loss – ATP luminescence, cytotoxicity control for P. falciparum antimalarial project, primary screen (AID 2303);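 also: 0% = DMSO wells and 100% = digitonin-killed cells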
- settings: HepG2 viability, 24-48 h, at 10 µM, stronger effect = higher value
Active and inactive are the calls of the source.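 The calls were made as follows: active = inhibition above 50%; inactive = the rest.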

Below, 5 compounds whose answers are already recorded.
compound=COc1ccc(N2CCc3c(-c4cccc5cnccc45)cc(C)nc32)c(C)c1 endpointvalue="20% (inactive)"
compound=COC[C@H]1CCCN1Cc1ccc(-c2ccc(-c3nc4ccccc4[nH]3)s2)cc1 endpointvalue="18% (inactive)"
compound=C=CCN(C(=O)c1ccc(Cl)c([N+](=O)[O-])c1)c1nc(-c2ccccc2)cs1 endpointvalue="-13% (inactive)"
compound="COc1ccc2ncc(Cl)c(NCC3(O)CCC(NCc4ccc5c(n4)NC(=O)CS5)CC3)c2n1 (centres undefined)" endpointvalue="39% (inactive)"
compound=Cc1cc(Br)c(OCCCON2C(N)=NC(N)=NC2(C)C)c(Br)c1 endpointvalue="62% (active)"

Hey, can you go through the list below and give me inhibition for every item?
1. CC(C)c1ccc(CN2CCC(CNC(=O)c3cc(-c4cccc(C(F)(F)F)c4)cs3)C2)cc1 (centres undefined)
2. CCO[C@H]1CN[C@H](C#Cc2cc3c(Nc4ccc(OCc5cccc(F)c5)c(Cl)c4)ncnc3s2)C1
3. Cc1cccc(Nc2c(-c3cc(Br)ccc3O)nc3ncccn23)c1
4. Cc1cc(N2CCCC2)nc(Nc2ccc(NC(=O)C(C)(C)C)cc2)n1
5. CCc1cn2c3c(cc(C(=O)N[C@@H](Cc4ccccc4)[C@H](O)CNC(C)(C)c4cccc(OC)c4)cc13)N(C)S(=O)(=O)C2

Found:
36% (inactive)
8% (inactive)
-2% (inactive)
24% (inactive)
27% (inactive)

* * *

- system: L-lactate dehydrogenase (Plasmodium falciparum (isolate CDC / Honduras))
- experiment: PfLDH activity inhibition – cell lysate, 3D7 strain, counter-screen for P. falciparum growth inhibition project (AID 2304);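 also: 0% = vehicle and 100% = reference inhibitor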
- settings: P. falciparum 3D7 crude extract, LDH APAD/NBT absorbance; at 2 µM; stronger effect = higher value
Calls of active or inactive are those of the source. The rule behind the calls is not given here.
measurementName: inhibition

# batch size: 6; output inhibition per entry
1. COc1cc2c(OC)cccc2cc1CNCCCCCCNCc1cc2cccc(OC)c2cc1OC
2. CCO[C@H]1CN[C@H](C#Cc2cc3c(Nc4ccc(OCc5cccc(F)c5)c(Cl)c4)ncnc3s2)C1
3. CCNc1cc(C(=O)N[C@@H](Cc2ccccc2)[C@H](O)CNCc2cc(OC)cc(OC)c2)cc(N2CCCC2=O)c1
4. Cc1nc(N)nc(N)c1Oc1cccc(Cl)c1
5. CCCCCCCC1CC(CC(=O)Nc2ccnc3ccc(OC)cc23)CN1C(=O)OC(C)(C)C (stereo unspecified)
6. O=C(NC1CC1)c1ccc(N2CCCCN2CCc2ccccc2)c(C(F)(F)F)c1

Found:
1% (inactive)
2% (inactive)
2% (inactive)
3% (inactive)
3% (inactive)
-4% (inactive)

* * *

- experiment: human hepatoma cell viability loss – ATP luminescence, cytotoxicity control for P. falciparum antimalarial project, primary screen (AID 2303);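 also: 0% = DMSO wells and 100% = digitonin-killed cells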
- settings: HepG2 viability, 24-48 h, at 10 µM, stronger effect = higher value
measurementName: inhibition (%)
Answers are plain numbers, in %.

structurestring=Cc1nc(N)nc(N)c1OCCCCOc1ccccc1 endpointvalue=62
structurestring=CN1CCN(CCNc2c3ccccc3nc3ccc4ccccc4c23)CC1 endpointvalue=22
structurestring=CS(=O)(=O)NCCCNCc1ccc(-c2ccc(-c3nc4ccc(F)cc4[nH]3)s2)cc1 endpointvalue=23

Turning now to a further compound:
Lookup: Entry under review: CCCCCCCCCc1c(C)[nH]c2ccccc2c1=O . Reported inhibition?
Found: -16
